Overview of reported CC50 across a group of compounds:
Assay: NOVARTIS: Cytotoxicity against human hepatocellular carcinoma cell line (Huh7)
Format: toxicity, cell-based, Huh-7
Conditions: Huh7 cells (hepatocellular carcinoma cell line)

Answered cases to consult:
[
  {
    "Compound": "O=c1c(=O)n(Cc2cccc(C(F)(F)F)c2)ccn1CCc1ccccc1",
    "Value": "> 10 µM"
  },
  {
    "Compound": "O=[N+]([O-])c1ccc(-c2ccc(C=NNc3ccccn3)o2)cc1",
    "Value": "> 100 µM"
  },
  {
    "Compound": "CC1(C)Cc2c(sc(NC(=O)CCl)c2C#N)CO1",
    "Value": "20.5 µM"
  },
  {
    "Compound": "O=C1NN(c2ccc(Br)cc2)C(=O)C1=Cc1c(O)ccc2ccccc12",
    "Value": "> 100 µM"
  },
  {
    "Compound": "CCN(CC)S(=O)(=O)c1cc(S(=O)(=O)c2ccc(Cl)c(S(=O)(=O)N(CC)CC)c2)ccc1Cl",
    "Value": "> 10 µM"
  }
]

CC50 in this record for COc1ccccc1C=CC1=NC(=Cc2ccc(SC)cc2)C(=O)O1 : > 100 µM

Lab note: measured CC50 of COC(=O)[C@@H]1C[C@@H](NC(=O)c2ccc(OC)cc2OC)CN1Cc1ccc(C)cc1C was > 100 µM

====

Assay: NOVARTIS: Cytotoxicity against human hepatocellular carcinoma cell line (Huh7)
Assay type: toxicity, cell-based, Huh-7
Conditions: Huh7 cells (hepatocellular carcinoma cell line)
CC50 listing for selected compounds.

Here's what some known entries look like.
[
  {
    "Compound": "O=C(CSc1nc(NCc2ccccc2)c2ccccc2n1)NCc1ccco1",
    "CC50": "> 10 µM"
  },
  {
    "Compound": "O=C(c1cccs1)N(Cc1cccs1)c1ccc([N+](=O)[O-])cc1",
    "CC50": "> 10 µM"
  },
  {
    "Compound": "CCN(CC)CCN1C(=O)c2ccccc2NC1c1ccc(N(C)C)cc1 (stereo unspecified)",
    "CC50": "> 100 µM"
  },
  {
    "Compound": "CC(C)(C)c1ccc(O)c(CNC2CCCCC2)c1",
    "CC50": "60.1 µM"
  },
  {
    "Compound": "CN1CCN(c2ccc(Nc3ccnc4cc(Cl)ccc34)cc2Cl)CC1",
    "CC50": "> 23.7 µM"
  }
]

Reported CC50 for CCCCc1c(CCC)c(=N)c2ccccc2n1C was 71.9 µM

For record O=C(Cc1ccccc1)NC(c1ccc(Cl)cc1)c1ccc2cccnc2c1O (stereo unspecified) the listed CC50 is > 100 µM

For reference, reported CC50 for CCCCOc1ccc(-c2nnc(-c3ccc(C)cc3)n2-c2ccccc2)cc1 stands at > 10 µM

Note to self: CC50 recorded for COc1ccc(N2C(N)=NC(N)=NC23CCCC3)cc1 was > 100 µM

CC50 for CCCCCCCCC(=O)Nc1c(C)cccc1C is > 10 µM

Recorded result, Cc1ccc(NC(=O)c2ccc(NCCCN3CC(C)CC(C)C3)c([N+](=O)[O-])c2)cc1F (stereo unspecified) , CC50: > 53.6 µM

====

Test system: Plasmodium falciparum
Test: NOVARTIS: Inhibition of Plasmodium falciparum W2 (drug-resistant) proliferation in erythrocyte-based infection assay
Type: functional, organism-based
Details: Plasmodium falciparum, W2; read-out: EC50
Field: class. Source value: EC50. Ranges: low group = under 200 nM, middle group = from 200 nM up to 900 nM, high group = 900 nM and over

A selection of reference data follows.
[
  {
    "Compound": "CCNc1ncnc2sc(C(=O)NCc3csc(C)n3)c(C)c12",
    "Assay Target": "Plasmodium falciparum",
    "Category": "high group"
  },
  {
    "Compound": "Cc1cc(C)n(-c2ncc(-c3ccc([N+](=O)[O-])cc3)cn2)n1",
    "Assay Target": "Plasmodium falciparum",
    "Category": "high group"
  },
  {
    "Compound": "CC1(C)C2C[C@@H](COC(=O)NC(=O)c3ccccc3)[C@]3(C)[C@H](C21)C3(Cl)Cl (stereo partly drawn)",
    "Assay Target": "Plasmodium falciparum",
    "Category": "high group"
  },
  {
    "Compound": "CCOC(=O)C1CCN(C(=O)C(=O)Nc2ccc3nc4n(c(=O)c3c2)CCCCC4)CC1",
    "Assay Target": "Plasmodium falciparum",
    "Category": "middle group"
  },
  {
    "Compound": "O=C(Nc1ccccc1)Nc1ccc(S(=O)(=O)Nc2ccc(Br)cc2)cc1",
    "Assay Target": "Plasmodium falciparum",
    "Category": "high group"
  }
]

Problem: For the record CN(c1ccc(Br)cc1)S(=O)(=O)c1ccc2[nH]cc(C(=O)N3CCN(c4ccccc4)CC3)c(=O)c2c1 , report the class its EC50 corresponds to.
Result: low group

Problem: Note: place this compound into its band. Item: CCOC(=O)C1=C(C)NC2=C(C(=O)CC(c3ccc(OC)cc3)C2)C1c1cccs1 (stereo not drawn)
Result: low group

====

Tested on: Plasmodium falciparum
Experiment: NOVARTIS: Inhibition of Plasmodium falciparum 3D7 (drug-susceptible) proliferation in erythrocyte-based infection assay
Type: functional, organism-based
Conditions: Plasmodium falciparum, 3D7
Measured Endpoint: EC50 (nM)
Give the value, in units of nM, as a plain number.

[
  {
    "Compound": "N#Cc1ccc(NC(=O)NC2CC3CCCC(C2)N3CCc2ccccc2)cc1 (configuration not stated)",
    "Measured Endpoint": "EC50",
    "Value": 362
  },
  {
    "Compound": "COc1ccccc1C(=O)NC1CCN(CC(O)CN(Cc2ccccc2)S(=O)(=O)c2ccccc2)C1 (configuration not stated)",
    "Measured Endpoint": "EC50",
    "Value": 215
  },
  {
    "Compound": "CCCc1c(C)nc2ccc(Br)cc2c1O",
    "Measured Endpoint": "EC50",
    "Value": 1510
  }
]

Measured EC50 of Cc1cc(NC2CCCCC2)nc(NCc2ccccc2)n1 : 296

Notebook: CN1c2ccccc2N(C)C1c1ccc2c(c1)OCO2 , EC50 read as 1120

Consider COc1ccc2ccccc2c1C1CC(=O)N2CN(Cc3ccco3)CSC2=C1C#N (configuration not stated) . Its measured EC50 is 3320

So, CCC12C(=O)C(CC)(C(c3ccccc3)=C1c1ccccc1)C1C(=O)N(c3cccc(C(F)(F)F)c3)C(=O)C12 (configuration not stated) ? Its EC50 was 2410

Kindly note the recorded EC50 for O=C(NCc1n[nH]c(=S)n1-c1ccc(Br)cc1)c1cccc2ccccc12 , which is 293

====

Experiment: NOVARTIS: Cytotoxicity against human hepatocellular carcinoma cell line (Huh7)
Format: toxicity, cell-based, Huh-7
Conditions: Huh7 cells (hepatocellular carcinoma cell line)
Measured Endpoint: CC50

[
  {
    "Molecule": "O=C1Nc2ccccc2C1=Nc1ccccc1NS(=O)(=O)c1ccc2ccccc2c1",
    "CC50": "> 10 µM"
  },
  {
    "Molecule": "CCN(CC)CCCC(C)Nc1cc(/C=C/c2ccc([N+](=O)[O-])cc2)nc2cc(OC)ccc12 (configuration not stated)",
    "CC50": "> 10 µM"
  },
  {
    "Molecule": "CN(C)c1cc(NC(=O)Nc2cccc(Cl)c2)c2ccccc2n1",
    "CC50": "> 10 µM"
  },
  {
    "Molecule": "COc1ccc(C2(C(=O)NCc3ccccc3Cl)CCCC2)cc1OC",
    "CC50": "> 100 µM"
  },
  {
    "Molecule": "COc1ccc(-c2c[n+](CC(=O)c3cccc(OC)c3)c3n2CCC3)cc1",
    "CC50": "> 100 µM"
  },
  {
    "Molecule": "Cc1ccc(-c2nnc(NCc3ccccc3)c3ccccc23)cc1S(=O)(=O)NCC1CCCO1 (configuration not stated)",
    "CC50": "> 100 µM"
  },
  {
    "Molecule": "O=C(NCc1nnc(SCC2CCCO2)n1Cc1ccccc1)c1cccc2ccccc12 (configuration not stated)",
    "CC50": "8.28 µM"
  },
  {
    "Molecule": "Cc1nc(-c2nc3c(s2)CN(C(=O)COc2ccc(Cl)cc2)CC3)cs1",
    "CC50": "> 100 µM"
  },
  {
    "Molecule": "COc1ccccc1C1CC(=O)N2CN(Cc3ccccc3)CSC2=C1C#N (configuration not stated)",
    "CC50": "> 100 µM"
  },
  {
    "Molecule": "OCCNc1nc(Nc2ccccc2)nc2ccccc12",
    "CC50": "47.5 µM"
  }
]

// sample Cc1ccc(C2CC(C(F)(F)F)n3ncc(C(=O)Nc4ccc(OC(F)(F)F)cc4)c3N2)cc1 (configuration not stated) , its CC50 was > 100 µM

Kindly note the recorded CC50 for CC(C)CN1C(=O)c2ccccc2C(C(=O)NC2CCCCC2)C1c1cccs1 (configuration not stated) , which is > 100 µM

Lab book: CC50 of CC1(C)C(=O)C2(CCCCC2)C(=O)OC1C=Cc1ccccc1 (configuration not stated) noted as > 100 µM

The molecule listed as CCCN(CCC)CC(O)COc1ccccc1C(=O)Nc1ccccc1 (configuration not stated) shows CC50 equal to > 100 µM

Quick note, CC50 for O=C(Cc1ccc(Cl)cc1)NNS(=O)(=O)c1ccc([N+](=O)[O-])cc1 landed at > 10 µM

Field CC50 (entry Cn1c(=NC(=O)c2ccc(S(=O)(=O)N3CCCCC3)cc2)sc2cc(Cl)ccc21 ) reads > 10 µM

Quick note, CC50 for CC(=O)c1c(C)n(CC(=O)Nc2cccc(C)c2)c2ccccc12 landed at > 100 µM
